// data source = ChEMBL document CHEMBL1201862

# ASSAY SYSTEM: Ubiquitin-conjugating enzyme E2 N (Homo sapiens, UniProt P61088);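 note: Dose-response confirmation in a TR-FRET assay detecting UBC13-driven polyubiquitin chain formation, inhibition measured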
# Sequence (P61088 whole entry): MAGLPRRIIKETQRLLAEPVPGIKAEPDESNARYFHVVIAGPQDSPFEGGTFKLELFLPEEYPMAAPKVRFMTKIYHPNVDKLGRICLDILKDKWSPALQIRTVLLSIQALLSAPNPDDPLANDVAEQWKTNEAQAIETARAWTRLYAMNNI
# Assay type: functional
Activity calls are given as the source filed them.
Reply using exactly one outcome from 1 for active, 0 for inactive

Identify the outcome logged in this assay for the compound shown: `O=C(CSc1nc2ccsc2c(=O)n1Cc1ccc(C(=O)O)cc1)NCc1ccco1`
0

Outcome? `c1ccc(C[C@H]2CNCCN2CCC23CC4CC(CC(C4)C2)C3)cc1`
0

Dear colleague, could you share the recorded outcome for `CCCCN(C)CCNC(=O)c1cc2c(-c3cccc(OC)c3)nn(C)c2s1` when you have a moment?
0

# fetch the recorded call for O=C(CCCCCN1C(=O)c2cccc3cccc(c23)C1=O)NC1CCS(=O)(=O)C1 (centres undefined) here
0

Called result for `COc1cccc(-c2nnc3n2N=C(c2cc(OC)ccc2OC)CS3)c1`
0

Called result for `COc1ccc(OC)c(/C=C/C(=O)OCC(=O)c2c(N)n(C)c(=O)n(C)c2=O)c1`
1

Give the logged outcome of this assay for the following compound: Clc1ccc(COC(Cn2ccnc2)c2ccc(Cl)cc2Cl)cc1 (centres undefined) [ECONAZOLE NITRATE]
0

Check the results log: what was the call for C#CCOCCOCCOCCNc1nc(N2CCN(C(=O)[C@H](CCCN=C(N)N)n3cc(C(N)[C@@H](C)CC)nn3)CC2)nc(N2CCN(C(=O)[C@H](CC(N)=O)n3cc([C@@H](N)CC(N)=O)nn3)CC2)n1 (some centres undefined) ?
0

Tell me the recorded outcome of this test for `CN(C)CCCNc1cc(C(C)(C)C)nc2c(-c3ccc(Cl)cc3)cnn12` .
0
